Test system: NCI-H322M lung
METHOD DESCRIPTION: NCI-60 one-dose screen, 48 h (100 = growth as untreated, 0 = no growth, -100 = all killed)
EXPERIMENTAL CONTEXT: 10 µM unless noted
About 83,000 compounds went through this panel and 20% of them were active in at least one assay; those are over-represented in the sample as a whole.

{"MOLECULE": "O=C(c1nc2ccccc2[nH]1)C1C(c2ccc(F)cc2)C2CC3CCCCC3N2[C@@]12C(=O)Nc1ccc(Cl)cc12 (some centres undefined)", "growth (%)": 60.6}
{"MOLECULE": "COc1cc(C2CC(c3ccc(Nc4nc(NCCO)nc(N5CCOCC5)n4)cc3)=NN2c2cc(Cl)cc(Cl)c2)cc(OC)c1OC (centres undefined)", "growth (%)": 72.6}
{"MOLECULE": "CC1=CCC(OC(=O)C(C)(C)CCC(O)(C(=O)OC2(C(C)C)CCC3(C)OC3C2)C(C)C)(C(C)C)CC1 (centres undefined)", "growth (%)": -93}
{"MOLECULE": "CCOC(=O)c1c2c(n3cccc(Cl)c13)C(=O)c1ncccc1C2=O", "growth (%)": 26.5}
{"MOLECULE": "Cc1nc2ccccc2c(/C=C/c2ccc(F)cc2)c1C(N)=O", "growth (%)": 110}
{"MOLECULE": "Cc1ccc2cccc(Oc3ccc(Nc4ncnc5onc(-c6ccccc6)c45)cc3)c2n1", "growth (%)": 88.2}
{"MOLECULE": "O=c1nc2sc3nc4ccccc4cc3cc-2s1", "growth (%)": 106}
{"MOLECULE": "COc1ccc(Cn2c(Br)c3c(c2-c2cc(OC)c(OC)c(OC)c2)CCc2sc(NC(=O)c4ccc(OC)cc4)nc2-3)cc1", "growth (%)": 69.3}
{"MOLECULE": "COc1ccc(/C=C2/SC(=O)N(CC(=O)N3CCN(c4cc5c(cc4F)c(=O)c(C(=O)O)cn5C4CC4)CC3)C2=O)cc1", "growth (%)": 99}
{"MOLECULE": "C[C@@H](C(=O)NCCCC#Cc1cnc(Nc2ccc(C#N)cc2)nc1NC1CC1)N(C)C(=O)/C=C/CN(C)C", "growth (%)": 63}
{"MOLECULE": "CCOC(=O)c1ccc(N=Cc2sc(=O)[nH]c2O)cc1", "growth (%)": 101}
{"MOLECULE": "O=c1cc(NC2CCN(CCCc3ccccc3)CC2)c2cc(Cl)ccc2o1", "growth (%)": 0.794}
{"MOLECULE": "COc1ccccc1N1C(=N)S/C(=C\\c2ccc(OCc3ccccc3F)cc2)C1=O", "growth (%)": 81.6}
{"MOLECULE": "CCCSC1=NC2C(N(CC)C(=O)N2CC)N1/N=C/C=C/c1ccccc1[N+](=O)[O-] (centres undefined)", "growth (%)": 57.5}
{"MOLECULE": "N#C/C(=C\\c1c(-c2ccccc2)[nH]c2ccccc12)S(=O)(=O)c1ccccc1", "growth (%)": 60}
{"MOLECULE": "O=C(Nc1ccc(Br)cc1F)c1cc(Cl)ccc1O", "growth (%)": 4.59}
{"MOLECULE": "COc1cc(/C=C2\\CN(C)C/C(=C\\c3cc(CN4CCCCC4)c(O)c(OC)c3)C2=O)cc(CN2CCCCC2)c1O", "growth (%)": 43.1}
{"MOLECULE": "CNCCNc1nc2ccccc2c2c(=O)c3cc(F)ccc3sc12", "growth (%)": 42.4}
{"MOLECULE": "COc1nccc2cc3c(=O)n4c(cc5ccccc54)c(=O)n3c12", "growth (%)": 86.3}
